Below are Ki values for Hepatocyte growth factor receptor (Homo sapiens, UniProt P08581) collected from several publications.

Please give Ki, item by item, for the list that follows.
1. Fc1cccc(-c2cnoc2-c2c[nH]c3ncc(-c4ccc(CN5CCCC5)cc4)cc23)c1F
2. COc1cc2nccc(Oc3ccc(Nc4ncccc4C(=O)NC(C)c4nccs4)cc3)c2cc1OC (centres unmarked)
3. Nc1ncc(-c2cnn(C3CNC3)c2)cc1-c1nnnn1-c1cccc(Cl)c1Cl
4. Fc1cccc(-c2cnoc2-c2c[nH]c3ccccc23)c1F
5. Nc1ncc(-c2ccc(CO)cc2)cc1-c1nnnn1-c1cccc(Cl)c1Cl

output:
1. < 0.2 µM
2. 0.136 µM
3. ≤ 0.1 µM
4. 1 to 12.5 µM
5. ≤ 0.1 µM

Provide each entry's Ki from the list below.
1. Nc1ncc(-c2ccc(NC(=O)N3CCCC3)cc2)cc1-c1nnnn1-c1cccc(F)c1F
2. CNC(=O)Cn1cc(-c2cnc(N)c(-c3nnnn3-c3cccc(F)c3F)c2)cn1

output:
1: ≤ 0.1 µM; 2: 0.1 to 1 µM

For each of the items listed, what is its Ki?
1. Nc1ncc(-c2ccc(O)cc2)cc1-c1nnnn1-c1cccc(F)c1F
2. Nc1ncc(-c2ccc(F)c(Cl)c2)cc1-c1nncn1-c1cccc(F)c1F
3. Fc1cccc(-c2cnoc2-c2c[nH]c3ncc(-c4ccccn4)cc23)c1F
4. Nc1ncc(-c2ccc(CNC3CCC3)cc2)cc1-c1nnnn1-c1cccc(F)c1F

output:
1. ≤ 0.1 µM
2. 0.1 to 1 µM
3. < 0.2 µM
4. ≤ 0.1 µM

Provide Ki values for the following items, in order.
1. Nc1ncc(-c2ccncc2)nc1-c1nnc(O)n1-c1cccc(F)c1F
2. C[C@@H](NC(=O)Nc1cccnc1)c1nnc2ccc(Nc3cccc(Cl)c3)nn12
3. Cc1ccccc1-c1cnc2c(-c3ccccn3)c(N)nn2c1
4. Nc1ccc(-c2cnc(N)c(-c3nncn3-c3cccc(F)c3F)n2)cc1
5. COCCC(=O)N1CC=C(c2cnc(N)c(-c3nnnn3-c3cccc(F)c3F)c2)CC1
6. CN1CCN(c2ncccc2-c2cnc3c(-c4ccccn4)c(N)nn3c2)CC1

output:
["0.1 to 1 µM", "0.25 to 2.5 µM", "0.5 to 5 µM", "≤ 0.1 µM", "≤ 0.1 µM", "0.5 to 5 µM"]
